FYI, the data here is from paper PMC9870012.

# reported pKi; entries follow
Study target: UniProtKB Q16820
Sequence (Q16820 62-701): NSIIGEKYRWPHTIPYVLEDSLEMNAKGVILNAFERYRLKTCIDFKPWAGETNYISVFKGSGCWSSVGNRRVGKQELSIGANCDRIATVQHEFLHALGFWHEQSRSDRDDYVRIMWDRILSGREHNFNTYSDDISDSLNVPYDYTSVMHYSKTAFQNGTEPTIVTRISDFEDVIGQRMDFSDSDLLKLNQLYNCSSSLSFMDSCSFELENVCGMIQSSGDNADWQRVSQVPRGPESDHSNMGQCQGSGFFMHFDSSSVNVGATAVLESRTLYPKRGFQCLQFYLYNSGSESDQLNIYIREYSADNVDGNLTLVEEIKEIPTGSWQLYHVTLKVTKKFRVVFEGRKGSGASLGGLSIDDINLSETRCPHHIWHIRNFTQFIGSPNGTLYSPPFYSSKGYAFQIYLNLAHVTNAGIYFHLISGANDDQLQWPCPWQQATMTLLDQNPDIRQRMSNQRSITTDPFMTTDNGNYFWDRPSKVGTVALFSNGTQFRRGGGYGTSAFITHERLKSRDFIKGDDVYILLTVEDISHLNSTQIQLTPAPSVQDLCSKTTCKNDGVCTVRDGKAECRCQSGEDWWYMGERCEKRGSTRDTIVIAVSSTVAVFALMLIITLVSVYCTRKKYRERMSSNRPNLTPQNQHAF
pKi: −log10 of the molar value.
Test readout: pKi

{"Compound": "O=C(Cc1c(-c2cccc(C(=O)O)c2)[nH]nc1[C@H]1CC[C@@H](C(=O)O)CC1)NO [16m]", "Assay result": 7.84}
{"Compound": "O=C(Cc1c(-c2cccc(-c3nnn[nH]3)c2)n[nH]c1-c1ccccc1)NO [14p]", "Assay result": 8.17}
{"Compound": "Cn1nc(-c2ccccc2)c(CC(=O)NO)c1-c1ccccc1 [21a]", "Assay result": 6.36}
{"Compound": "O=C(Cc1c(-c2cc(F)c(O)c(Cl)c2)n[nH]c1-c1ccccc1)NO [14m]", "Assay result": 9.40}
{"Compound": "O=C(Cc1c([C@H]2CCCC[C@H]2C(=O)O)n[nH]c1-c1ccccc1)NO (relative stereo) [14q]", "Assay result": 7.49}
{"Compound": "O=C(Cc1c(-c2ccccc2)nn(-c2ccccc2)c1-c1ccccc1)NO [21b]", "Assay result": 6.18}
